Here the recorded Ki is given for each entry.
# experimental system: human EP1 receptor (Homo sapiens)
# Construct: expressed in transfected cells; host or cells: CHO-K1 cells, pCIN vector
# Sequence (P34995 whole entry): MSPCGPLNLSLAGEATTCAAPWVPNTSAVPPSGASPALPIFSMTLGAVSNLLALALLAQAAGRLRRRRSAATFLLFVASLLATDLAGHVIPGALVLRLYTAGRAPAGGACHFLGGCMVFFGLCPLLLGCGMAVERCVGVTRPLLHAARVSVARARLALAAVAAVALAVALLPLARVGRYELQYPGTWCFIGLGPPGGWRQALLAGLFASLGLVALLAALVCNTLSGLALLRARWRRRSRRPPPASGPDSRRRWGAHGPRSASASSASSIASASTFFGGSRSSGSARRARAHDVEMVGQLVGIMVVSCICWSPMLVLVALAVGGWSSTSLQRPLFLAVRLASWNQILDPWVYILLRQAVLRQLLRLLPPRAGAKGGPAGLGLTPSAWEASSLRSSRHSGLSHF
# assay overview: human EP1 calcium mobilisation assay (FLIPR, CHO-K1 cells)
# Type: cell-based
# run conditions: antagonism of PGE2-induced calcium mobilisation, CHO-K1 cells expressing EP1; averages of a number of experiments; read-out: functional pKi (converted)
measured metric: Ki

{"sample smiles": "CC(C)Cc1cn(-c2nc(C(=O)O)cs2)c2cc(C(F)(F)F)ccc12", "assay result": "≤ 0.1 µM"}
{"sample smiles": "CC(C)Cc1cn(-c2nc(C(=O)O)co2)c2cc(Cl)ccc12", "assay result": "≤ 0.1 µM"}
{"sample smiles": "CC(C)Cc1cn(-c2cccc(C(=O)O)n2)c2cc(Cl)ccc12", "assay result": "≤ 0.1 µM"}

Measured values drawn from patent US20100016371A1 for this set.
